Data provenance: patent US20010029293A1

SUBJECT OF TEST: CD18-independent counterreceptor for ICAM-R on Jurkat cells
TEST NAME: cell adhesion to coated shICAM-R, peptide 1-2 mg/ml
MEASURED ATTRIBUTE: % Inhibition CD18-Independent Binding (Jurkat) (%)

1 = DGQST [ICAM-1 peptide 70-74 (DGQST)]
2 = GDQRL [ICAM-1 peptide 228-232 (GDQRL)]
Returns: the label, 1 or 2 , whose recorded % Inhibition CD18-Independent Binding (Jurkat) is the lower number. Please respond with the label that marks your chosen entry.
1

A = GDQML [ICAM-R peptide 230-234 (GDQML)]
B = NGSQI [ICAM-R peptide 72-76 (NGSQI)]
For the pair A and B , which member has the lower % Inhibition CD18-Independent Binding (Jurkat) number? Answer format: the label of the selected item.
B
(B: 17%, A: 36%)
